Test system: SN12C renal
Assay: NCI-60 one-dose screen, 48 h
Conditions: 10 µM unless noted
The panel holds about 83,000 compounds, 20% with a hit somewhere; the sample as a whole holds those more often. Calls of active or inactive are those of the source. Rule for the calls: active = growth percent below 10; inactive = the rest.
Outcomes: active, inactive

1) O=c1[nH]c(N2CCC(Cc3ccccc3)CC2)nc2sc3c(c12)CCCC3 :: inactive
2) COc1cccc(/C=C2\Cc3ccccc3C2=O)c1 :: inactive
3) [N-]=[N+]=NCc1cccc(/C(O)=C/C(=O)C(=O)O)c1 :: inactive
4) COC(=O)[C@H]1[C@H]2C[C@@H]3c4[nH]c5cc(OC)ccc5c4CCN3C[C@H]2C[C@@H](OC(=O)/C=C/c2cc(OC)c(OC)c(OC)c2)[C@@H]1OC :: inactive
5) Clc1ccc2[nH]cc(-c3cncn3CCc3ccccc3)c2c1 :: inactive
6) COc1ccc2c(c1)[n+](=O)c(C(=O)/C=C/c1cc(OC)c(OC)c(OC)c1)c(C)n2[O-] :: inactive
7) COc1ccc(-c2nnc3c4[nH]cnc4ncn23)c(OC)c1 :: inactive
8) O=C(N/N=C/c1cccc([N+](=O)[O-])c1)c1ccc(Br)o1 :: inactive
9) Cc1n(Cc2ccc3ccccc3c2)c2ccccc2[n+]1Cc1ccc2ccccc2c1 :: active
10) N=C1c2nc3n(c2C(=O)c2nc4n(c21)CCCCC4)CCCCC3 :: inactive
11) Cn1c(=O)c2[nH]c(=S)n(Cc3ccccc3)c2n(C)c1=O :: inactive
12) Cc1cc2c(cc1C)[n+](Cc1ccc3ccccc3n1)cn2Cc1ccc2ccccc2n1 :: inactive
13) CS(=O)(=O)N1CCN(Cc2cc3nc(-c4cccc5[nH]ncc45)nc(N4CCOCC4)c3s2)CC1 (tested in a mixture with another compound) :: inactive
14) COC(=O)[C@H](CCCCNC(=O)OCc1ccccc1)NC(=O)[C@@H](NC(=O)Nc1cc(C(F)(F)F)cc(C(F)(F)F)c1)C(C)C :: active
15) COc1cc(/C(Cl)=C/C=C/C(=O)c2c(C)[n+]([O-])c3ccc(Cl)cc3[n+]2[O-])cc(OC)c1OC :: inactive
16) O=C1Nc2ccc(C(=O)O)c(O)c2C1=O :: inactive
17) OCCN1CCN(CCCN2c3ccccc3Sc3ccc(C(F)(F)F)cc32)CC1 :: inactive
18) O=C(NCCNC(=O)Oc1cccc2ccccc12)Oc1cccc2ccccc12 :: inactive
19) OC(c1ccccc1)C(NCc1ccccc1)c1ccccc1 (centres undefined) :: inactive
20) COc1ccc(CNC(=O)c2c(C)n([O-])c3cc(F)c(F)cc3[n+]2=O)cc1 :: inactive
21) COc1cccc(C=Nc2cc(C(C)C)c(O)cc2C)c1O :: inactive
22) Oc1c(N=Nc2nn[nH]n2)ccc2ccccc12 :: inactive
23) CSc1nc(N)c2c(n1)N(C)C=NS2(=O)=O :: inactive
24) CSc1nc2nc3c(nc2c(=O)n1C)C(=O)c1ccccc1C3=O :: active
25) C[C@H]1c2cccc(O)c2C(O)=C2C(=O)[C@]3(O)C(O)=C(C(N)=O)C(=O)[C@@H](N(C)C)[C@@H]3[C@@H](O)[C@@H]21 :: inactive
26) COc1ccc2c3c(ccc2c1)C(=O)/C(=C\O)CC3 :: inactive
27) CCOC(=O)Nc1cc(-c2ccc(C)c(NS(C)(=O)=O)c2)nn2c(C)nnc12 :: inactive
28) COc1ccc(OC)c2c1CCC1(C2)NC(=O)NC1=O (centres undefined) :: inactive
29) CC[C@@H](C)/C=C(C)/C=C/C(O)=C1\C(=O)N[C@@H](Cc2ccc(OC(=O)[C@@](OC)(c3ccccc3)C(F)(F)F)cc2)C1=O :: inactive
30) COc1cnc2c(c1)C(=O)c1c-2n(CCCN2CCCC2)c(=O)c2cc(F)ccc12 :: active
31) COc1cccc2c1C(=O)c1c(O)c3c(c(O)c1C2=O)C[C@@](O)(C(C)=O)C[C@@H]3O[C@H]1C[C@H](N)[C@H](O)[C@H](C)O1 :: active
32) CCCCNCCCN(CCCC)CCCNCCCC :: inactive
33) Cn1cc(NC(=O)Nc2cc(C(=O)O)n(C)c2)cc1C(=O)O :: inactive
34) O=C1c2cc3c(cc2-c2c1c1ccc(Cl)cc1c(=O)n2CCCNCCO)OCO3 :: active
35) Cc1cc(C)c(C(=O)c2cccs2)c(C)c1 :: inactive
36) C(#Cc1ccccc1C#Cc1ccccn1)c1ccc(OCCCCCCOc2ccc(C#Cc3ccccc3C#Cc3ccccn3)cc2)cc1 :: inactive
37) O=C(/C=C/c1cccc(O)c1)c1cccc(-n2cc(-c3ccccc3)[nH]c2=O)c1 :: active
38) CC(=O)N1N=C(c2ccc(Nc3nc(NCCO)nc(NCCO)n3)cc2)CC1c1ccc(Cl)cc1 (centres undefined) :: inactive
39) COCCOCCOCCOCCOc1ccc2c(c1)C(=O)c1nc3ncccc3c(=O)n1-2 :: active
